Test: Enzyme kinetics of GL-V9 glucuronidation in mouse liver microsomes (MiceLMs)
Type: in vitro ADME
Conditions: mouse, liver microsomes, pH 7.4, formation of 5-O-glucuronide GL-V9, protein 0.2 mg/mL, mean ± SD, n = 3
quantity measured: Km at 1 h (µM)
Answer format: numeric, µM implied, no suffix.

// query Entry COc1c(OCCCCN2CCCC2)cc(O)c2c(=O)cc(-c3ccccc3)oc12 : reported Km at 1 h = ?
// result 20.1

----------
Assay: Enzyme kinetics of GL-V9 glucuronidation in human liver microsomes (HLMs)
Assay type: in vitro ADME
Conditions: human, liver microsomes, pH 7.4, formation of 5-O-glucuronide GL-V9, protein 0.075 mg/mL, mean ± SD, n = 3
Procedure: The composition of the incubation system (200 μL) contained liver microsomes of different species (0.1 mg protein/mL), 5 mM saccharolactone (D-saccharic acid 1,4-lactone monohydrate), 10 mM MgCl2, alamethicin (50 μg/mg protein), Tris-HCl buffer (50 mM, pH 7.4) and GL-V9 (1 μM). After 5 min of preincubation at 37 °C, UDPGA (5 mM) was added to initiate the phase II reaction. Control incubation samples were performed without UDPGA or without substrates (GL-V9). […]
quantity measured: Km at 1 h (µM)
Answer format: numeric, µM implied, no suffix.

// query Entry COc1c(OCCCCN2CCCC2)cc(O)c2c(=O)cc(-c3ccccc3)oc12 : reported Km at 1 h = ?
// result 11.2

----------
Experiment: Enzyme kinetics of GL-V9 glucuronidation in beagle dog liver microsomes (DLMs)
Type: in vitro ADME
Settings: beagle, dog, liver microsomes, pH 7.4, formation of 5-O-glucuronide GL-V9, protein 0.1 mg/mL, mean ± SD, n = 3
quantity measured: Km at 1 h (µM)
Answer format: numeric, µM implied, no suffix.

// query Entry COc1c(OCCCCN2CCCC2)cc(O)c2c(=O)cc(-c3ccccc3)oc12 [GL-V9] : reported Km at 1 h = ?
// result 12.5
